METHOD SUMMARY: Inhibition of subtilisin assessed as residual proteolytic activity at 0.5 mM
Peptide text beside a SMILES is read from it.
RESULT TYPE: Activity (%)

- MOLECULE: "CC[C@H](C)[C@H](N)C(=O)N[C@@H](Cc1c[nH]c2ccccc12)C(=O)N[C@@H](CC(N)=O)C(=O)N[C@H](C(=O)N[C@@H](CC(C)C)C(=O)N[C@@H](CC(N)=O)C(=O)N[C@@H](CO)C(=O)NCC(=O)N[C@@H](CCCNC(=N)N)C(=O)N[C@H](C(=O)N[C@H](C(=O)N1CCC[C@H]1C(=O)NCC(=O)N[C@H](C(=O)NCC(=O)N[C@@H](Cc1cnc[nH]1)C(=O)N[C@@H](C)C(=O)CCl)[C@@H](C)O)C(C)C)C(C)C)[C@@H](C)O (HELM PEPTIDE1{I.W.N.T.L.N.S.G.R.V.V.P.G.T.G.H.A.[ClC[*:1]]}$$$$V2.0)"
  RESULT TYPE: "Activity"
  UNIT: "%"
  RESULT VALUE: 15
